Recorded measurements of fold-decrease in affinity, one per entry
# TARGET_UNDER_TEST: T1, E277A
# T1 construct: % monomer 81.58; also called MICA*008.mIgG2a E277A
# T1 chain: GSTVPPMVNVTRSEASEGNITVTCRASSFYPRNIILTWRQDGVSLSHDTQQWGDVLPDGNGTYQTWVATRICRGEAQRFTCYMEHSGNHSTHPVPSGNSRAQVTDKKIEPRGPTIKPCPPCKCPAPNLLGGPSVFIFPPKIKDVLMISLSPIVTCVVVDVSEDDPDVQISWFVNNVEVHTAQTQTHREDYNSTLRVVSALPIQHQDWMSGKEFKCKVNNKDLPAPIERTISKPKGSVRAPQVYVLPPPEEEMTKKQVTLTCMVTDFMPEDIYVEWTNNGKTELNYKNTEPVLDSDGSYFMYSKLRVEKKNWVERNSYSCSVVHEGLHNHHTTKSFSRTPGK
# TEST: SPR, Fab over captured MICA*008.mIgG2a Ala variant; KD relative to wild type
Lab note: jot the number down without any unit.

binder="6F8.7 Fab (Fab, V domains shown) VH: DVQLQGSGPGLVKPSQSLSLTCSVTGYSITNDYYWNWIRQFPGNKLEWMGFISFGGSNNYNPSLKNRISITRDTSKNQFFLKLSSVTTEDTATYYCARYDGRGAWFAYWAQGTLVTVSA VL: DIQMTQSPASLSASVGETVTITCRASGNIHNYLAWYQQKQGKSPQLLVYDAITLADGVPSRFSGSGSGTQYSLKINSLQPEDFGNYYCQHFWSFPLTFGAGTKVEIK" endpoint="fold-decrease in affinity" quantitative_readout=2.7
binder="2E5.2.3 Fab (Fab, V domains shown) VH: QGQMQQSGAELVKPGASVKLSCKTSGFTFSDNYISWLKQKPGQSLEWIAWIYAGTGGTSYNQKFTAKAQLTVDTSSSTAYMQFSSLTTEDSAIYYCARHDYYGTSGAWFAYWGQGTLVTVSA VL: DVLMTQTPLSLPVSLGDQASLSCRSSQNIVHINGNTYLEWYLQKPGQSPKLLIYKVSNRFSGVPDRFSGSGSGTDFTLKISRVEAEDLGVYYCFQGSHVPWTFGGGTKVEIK" endpoint="fold-decrease in affinity" quantitative_readout=1.1
binder="7D4.6 Fab (Fab, V domains shown) VH: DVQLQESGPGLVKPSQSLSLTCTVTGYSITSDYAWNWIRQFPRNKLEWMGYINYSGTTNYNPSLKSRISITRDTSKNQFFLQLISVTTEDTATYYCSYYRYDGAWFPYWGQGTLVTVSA VL: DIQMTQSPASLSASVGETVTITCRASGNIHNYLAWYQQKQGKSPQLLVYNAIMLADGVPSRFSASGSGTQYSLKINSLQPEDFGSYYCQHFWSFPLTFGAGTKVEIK" endpoint="fold-decrease in affinity" quantitative_readout=1.3

[in] I'd like to know its fold-decrease in affinity. The binder in question is 1D5 Fab (Fab, V domains shown, Expressed in E. coli as chimera of murine variable and human constant domains; not shown: human IgG1 CH1 constant domain; human kappa CL constant domain) VH: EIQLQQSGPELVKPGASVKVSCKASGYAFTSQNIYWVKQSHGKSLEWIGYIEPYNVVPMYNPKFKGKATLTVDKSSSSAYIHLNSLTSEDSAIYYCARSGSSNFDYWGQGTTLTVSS VL: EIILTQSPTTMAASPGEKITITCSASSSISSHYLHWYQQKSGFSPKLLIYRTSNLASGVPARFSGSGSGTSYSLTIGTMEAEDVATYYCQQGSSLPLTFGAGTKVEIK
[out] 1.9
